- Tested on: Candida albicans (IFO 0538)
- assayName: Antifungal activity against Candida albicans, paper disc growth inhibition zone (Tables 5 and 6)
- Assay type: cell-based
- runConditions: 48 h, pH 7, B medium (yeast nitrogen base agar, pH 7.0), 28° C., 2 days incubation; read-out: Inhibition zone diameter
parameterMeasured: zone of inhibition at 1000 µg/mL

A selection of reference data follows.
| molecule | parameterMeasured | measurement |
| --- | --- | --- |
| C[C@@H](SCc1nccn1CCF)[C@](O)(Cn1cncn1)c1ccc(F)cc1F (relative stereo) | zone of inhibition at 1000 µg/mL | 23 mm |
| C[C@@H](SCc1ncnn1C)[C@](O)(Cn1cncn1)c1ccc(F)cc1F (relative stereo) | zone of inhibition at 1000 µg/mL | 40 mm |

Specify reported zone of inhibition at 1000 µg/mL for the molecule shown: C[C@@H](SCc1nc2c(s1)CCC2)[C@](O)(Cn1cncn1)c1ccc(F)cc1F (relative stereo) 40 mm

Specify reported zone of inhibition at 1000 µg/mL for the molecule shown: C[C@@H](SCc1ncc2cnccn12)[C@](O)(Cn1cncn1)c1ccc(F)cc1F (relative stereo) [Compound 57] 30 mm
